Molecular target: Integrin alpha-V/beta-8 (Homo sapiens, UniProt P06756+P26012)
Sequence (P06756 31-889 limits assumed): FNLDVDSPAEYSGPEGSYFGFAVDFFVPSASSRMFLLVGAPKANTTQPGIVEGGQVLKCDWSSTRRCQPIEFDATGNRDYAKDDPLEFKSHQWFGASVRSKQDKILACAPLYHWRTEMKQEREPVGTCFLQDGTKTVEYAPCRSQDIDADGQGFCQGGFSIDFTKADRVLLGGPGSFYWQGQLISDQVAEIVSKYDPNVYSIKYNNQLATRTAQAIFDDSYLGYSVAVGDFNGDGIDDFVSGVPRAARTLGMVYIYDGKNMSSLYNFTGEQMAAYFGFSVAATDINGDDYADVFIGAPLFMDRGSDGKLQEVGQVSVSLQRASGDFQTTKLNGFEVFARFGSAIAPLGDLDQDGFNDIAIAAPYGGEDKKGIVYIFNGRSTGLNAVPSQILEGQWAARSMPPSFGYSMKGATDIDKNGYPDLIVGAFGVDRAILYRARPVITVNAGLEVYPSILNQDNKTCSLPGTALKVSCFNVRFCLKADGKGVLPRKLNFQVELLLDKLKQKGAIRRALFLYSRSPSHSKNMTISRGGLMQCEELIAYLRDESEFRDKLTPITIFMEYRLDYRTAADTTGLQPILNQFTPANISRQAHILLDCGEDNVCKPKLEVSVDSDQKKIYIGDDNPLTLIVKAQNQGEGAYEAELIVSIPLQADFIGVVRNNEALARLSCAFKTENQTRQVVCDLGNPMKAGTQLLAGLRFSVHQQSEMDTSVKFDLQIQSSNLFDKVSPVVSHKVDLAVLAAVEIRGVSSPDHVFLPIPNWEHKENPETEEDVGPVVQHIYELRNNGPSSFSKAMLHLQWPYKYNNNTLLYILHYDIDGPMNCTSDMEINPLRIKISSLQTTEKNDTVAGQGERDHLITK
Sequence (P06756 891-1048 limits assumed): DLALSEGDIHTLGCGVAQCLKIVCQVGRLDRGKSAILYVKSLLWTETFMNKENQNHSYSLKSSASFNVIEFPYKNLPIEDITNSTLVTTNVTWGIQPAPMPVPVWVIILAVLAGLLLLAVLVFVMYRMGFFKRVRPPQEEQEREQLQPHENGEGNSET
Sequence (P26012 43-769 limits assumed): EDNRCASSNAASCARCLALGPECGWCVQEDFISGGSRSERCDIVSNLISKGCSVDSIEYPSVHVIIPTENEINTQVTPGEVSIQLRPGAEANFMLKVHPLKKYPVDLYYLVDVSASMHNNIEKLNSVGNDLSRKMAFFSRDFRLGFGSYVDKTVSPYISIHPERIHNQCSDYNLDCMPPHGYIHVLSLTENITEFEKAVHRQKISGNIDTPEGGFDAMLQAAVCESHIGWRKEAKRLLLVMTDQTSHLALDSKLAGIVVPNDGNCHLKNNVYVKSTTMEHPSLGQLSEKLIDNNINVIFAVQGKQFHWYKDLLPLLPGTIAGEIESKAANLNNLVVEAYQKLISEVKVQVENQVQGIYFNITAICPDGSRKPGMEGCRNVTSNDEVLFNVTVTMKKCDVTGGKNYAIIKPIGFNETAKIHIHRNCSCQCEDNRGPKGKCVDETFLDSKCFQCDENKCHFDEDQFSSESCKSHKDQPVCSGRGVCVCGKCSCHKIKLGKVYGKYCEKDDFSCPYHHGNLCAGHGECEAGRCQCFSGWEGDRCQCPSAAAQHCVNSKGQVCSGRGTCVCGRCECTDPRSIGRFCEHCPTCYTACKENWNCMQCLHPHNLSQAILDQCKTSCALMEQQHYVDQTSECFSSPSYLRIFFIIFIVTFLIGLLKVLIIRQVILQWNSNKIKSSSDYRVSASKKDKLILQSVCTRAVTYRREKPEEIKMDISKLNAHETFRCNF
Test: Inhibition of LAP binding to human integrin alphavbeta8 receptor after 1 hr by solid-phase binding assay
Type: protein-complex assay
Conditions: read-out: IC50
Non-standard residues stand in square brackets, D forms with d. Residues, ends and D or L forms follow the SMILES beside them.
valueType: IC50 (µM)

Below, each entry is followed by its recorded IC50 result.
- compound: "CC(C)C[C@@H]1NC(=O)[C@H](CC(=O)O)NC(=O)CNC(=O)[C@H](CCCNC(=N)N)NC(=O)[C@H](C)NC(=O)[C@@H]2CCCN2C(=O)[C@H]2CCCN2C1=O (cyclo(ARGDL[dP]P))"
  resultNumber: 0.197
- compound: "CC(C)C[C@@H]1NC(=O)[C@H](C)NC(=O)[C@H](C)NC(=O)[C@H](CC(C)C)NC(=O)[C@H](CC(=O)O)NC(=O)CNC(=O)[C@H](CCCNC(=N)N)NC(=O)[C@@H]2CCCN2C(=O)[C@H]2CCCN2C(=O)[C@H](C)NC1=O"
  resultNumber: 0.614
- compound: "CC(C)C[C@@H]1NC(=O)[C@H](C)NC(=O)[C@@H]2CCCN2C(=O)[C@@H](C(C)C)N(C)C(=O)[C@H](CC(C)C)NC(=O)[C@H](CC(=O)O)NC(=O)CNC(=O)[C@H](CCCNC(=N)N)NC1=O"
  resultNumber: 0.019

I = CC(C)C[C@@H]1NC(=O)[C@H](C)NC(=O)[C@@H]2CCCN2C(=O)[C@@H](CC(C)C)N(C)C(=O)[C@H](CC(C)C)NC(=O)[C@H](CC(=O)O)NC(=O)CNC(=O)[C@H](CCCNC(=N)N)NC1=O
II = CC(C)C[C@@H]1NC(=O)[C@H](CC(=O)O)NC(=O)CNC(=O)[C@H](CCCNC(=N)N)NC(=O)[C@H](C)NC(=O)[C@H](C)NC(=O)[C@@H]2CCCN2C(=O)[C@H]2CCCN2C1=O
III = CC(C)C[C@@H]1NC(=O)[C@H](CC(=O)O)NC(=O)CNC(=O)[C@H](CCCNC(=N)N)NC(=O)[C@H](C)NC(=O)[C@H](C)NC(=O)[C@H](C)NC(=O)[C@H](C)NC(=O)[C@@H]2CCCN2C(=O)[C@H]2CCCN2C1=O
IV = CC(C)C[C@@H]1NC(=O)[C@H](C)NC(=O)[C@H](C)NC(=O)[C@@H]2CCCN2C(=O)[C@H]2CCCN2C(=O)[C@H](CC(C)C)NC(=O)[C@H](CC(=O)O)NC(=O)CNC(=O)[C@H](CCCNC(=N)N)NC(=O)[C@H](C)NC1=O
## Task // ranking: key=IC50, reverse=True Provide the labels, sequenced as the question asks.
## Result III, IV, I, II
(III: 0.166 µM, IV: 0.0474 µM, I: 0.015 µM, II: 0.0081 µM)

---

Target: Integrin alpha-V/beta-6 (Homo sapiens, UniProt P06756+P18564)
Sequence (P06756 31-889 limits assumed): as the sequence (P06756 31-889 limits assumed) above
Sequence (P06756 891-1048 limits assumed): as the sequence (P06756 891-1048 limits assumed) above
Sequence (P18564 22-788 limits assumed): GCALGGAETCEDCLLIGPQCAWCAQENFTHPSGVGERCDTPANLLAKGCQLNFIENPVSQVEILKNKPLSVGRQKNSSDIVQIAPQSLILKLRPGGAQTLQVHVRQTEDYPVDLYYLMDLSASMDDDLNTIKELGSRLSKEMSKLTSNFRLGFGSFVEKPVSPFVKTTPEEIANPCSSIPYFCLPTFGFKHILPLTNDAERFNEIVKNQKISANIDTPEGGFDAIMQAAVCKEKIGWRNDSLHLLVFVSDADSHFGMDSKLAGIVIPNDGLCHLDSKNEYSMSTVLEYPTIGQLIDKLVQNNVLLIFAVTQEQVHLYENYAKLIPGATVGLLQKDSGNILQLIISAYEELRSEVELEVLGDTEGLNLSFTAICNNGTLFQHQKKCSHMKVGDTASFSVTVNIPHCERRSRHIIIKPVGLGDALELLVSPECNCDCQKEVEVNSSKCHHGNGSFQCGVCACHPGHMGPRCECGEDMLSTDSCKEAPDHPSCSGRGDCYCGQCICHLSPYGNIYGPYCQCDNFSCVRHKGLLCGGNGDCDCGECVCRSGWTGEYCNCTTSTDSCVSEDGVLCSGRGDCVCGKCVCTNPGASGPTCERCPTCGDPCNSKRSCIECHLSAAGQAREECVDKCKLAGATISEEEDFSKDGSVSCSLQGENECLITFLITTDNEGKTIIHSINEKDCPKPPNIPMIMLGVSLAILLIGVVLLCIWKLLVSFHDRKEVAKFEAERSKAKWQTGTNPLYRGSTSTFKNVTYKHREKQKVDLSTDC
Test: Inhibition of LAP binding to human integrin alphavbeta6 receptor after 1 hr by solid-phase binding assay
Format: protein-complex assay
Details: read-out: IC50
pIC50: −log10 of the molar value.
valueType: pIC50

- compound: "CC(C)C[C@@H]1NC(=O)[C@H](C)NC(=O)[C@H](C)NC(=O)[C@@H]2CCCN2C(=O)[C@H]2CCCN2C(=O)[C@H](CC(C)C)NC(=O)[C@H](CC(=O)O)NC(=O)[C@H]([C@@H](C)O)NC(=O)[C@H](CCCNC(=N)N)NC(=O)[C@H](C)NC1=O"
  resultNumber: 6.14

a = CC(C)C[C@@H]1NC(=O)[C@H](C)NC(=O)[C@@H]2CCCN2C(=O)[C@H]2CCCN2C(=O)[C@H](CC(C)C)NC(=O)[C@H](CC(=O)O)NC(=O)CNC(=O)[C@H](CCCNC(=N)N)NC(=O)[C@H](C)NC(=O)[C@H](C)NC1=O
b = CC(C)C[C@@H]1NC(=O)[C@H](CC(=O)O)NC(=O)[C@H]([C@@H](C)O)NC(=O)[C@H](CCCNC(=N)N)NC(=O)[C@H](C)NC(=O)[C@H](CC(C)C)NC(=O)[C@@H]2CCCN2C(=O)[C@H]2CCCN2C(=O)[C@H](C)NC(=O)[C@H](C)NC1=O
c = CCNC(=N)NCCC[C@@H]1NC(=O)[C@H](CC(C)C)NC(=O)CNC(=O)[C@@H]2CCCN2C(=O)[C@H]2CCCN2C(=O)[C@H](CC(C)C)NC(=O)[C@H](CC(=O)O)NC(=O)CNC1=O
d = CC(C)C[C@@H]1NC(=O)[C@H](C)NC(=O)[C@H](CC(C)C)N(C)C(=O)[C@H]2CCCN2C(=O)[C@H](CC(C)C)NC(=O)[C@H](CC(=O)O)NC(=O)CNC(=O)[C@H](CCCNC(=N)N)NC1=O
e = CC(C)C[C@@H]1NC(=O)[C@H](CC(=O)O)NC(=O)CNC(=O)[C@H](CCCNC(=N)N)NC(=O)[C@H](C)NC(=O)[C@H](CC(C)C)NC(=O)[C@@H]2CCCN2C(=O)[C@H]2CCCN2C(=O)[C@H](C)NC(=O)[C@H](C)NC1=O
## Task // ranking: key=pIC50, reverse=True Provide the labels, sequenced as the question asks.
## Result e, b, d, a, c
(e: 7.87, b: 7.02, d: 6.74, a: 6.37, c: 6.11)

A = CC(C)C[C@@H]1NC(=O)[C@H](CC(=O)O)NC(=O)[C@H](CO)NC(=O)[C@H](CCCNC(=N)N)NC(=O)[C@H](Cc2ccccc2)NC(=O)[C@H](C)NC(=O)[C@@H]2CCCN2C(=O)[C@H]2CCCN2C1=O
B = CC(C)C[C@@H]1NC(=O)[C@H](CC(=O)O)NC(=O)CNC(=O)[C@H](CCCNC(=N)N)NC(=O)[C@@H](C)NC(=O)[C@H](C)NC(=O)[C@@H]2CCCN2C(=O)[C@H]2CCCN2C1=O
C = CC(C)C[C@@H]1NC(=O)[C@H](C)NC(=O)[C@@H]2CCCN2C(=O)[C@H]2CCCN2C(=O)[C@H](C)NC(=O)[C@H](CC(C)C)NC(=O)[C@H](CC(=O)O)NC(=O)CNC(=O)[C@H](CCCNC(=N)N)NC(=O)[C@H](C)NC1=O
D = CC(C)C[C@@H]1NC(=O)[C@H](CC(=O)O)NC(=O)CNC(=O)[C@H](CCCNC(=N)N)NC(=O)CNC(=O)[C@H](C)NC(=O)[C@@H]2CCCN2C(=O)[C@H]2CCCN2C1=O
## Task // ranking: key=pIC50, reverse=True Provide the labels, sequenced as the question asks.
## Result D, C, B, A
(D: 7.37, C: 7.16, B: 6.95, A: 6.43)

A = CC(C)C[C@@H]1NC(=O)[C@@H]2CCCN2C(=O)[C@H]2CCCN2C(=O)[C@H](CC(C)C)NC(=O)[C@H](CC(=O)O)NC(=O)CNC(=O)[C@H](CCCNC(=N)N)NC(=O)[C@H](C)NC1=O
B = CC(C)C[C@@H]1NC(=O)[C@H](C)NC(=O)[C@H](C)NC(=O)[C@@H]2CCCN2C(=O)[C@H]2CCCN2C(=O)[C@H](CC(C)C)NC(=O)[C@H](CC(=O)O)NC(=O)CNC(=O)[C@H](CCCNC(=N)N)NC(=O)[C@H](C)NC1=O
## Task Min pIC50? A | B Write down the label of the entry you select.
## Result A
(A: 6.38, B: 6.85)

a = CC(C)C[C@@H]1NC(=O)[C@H](CC(=O)O)NC(=O)CNC(=O)[C@H](CCCNC(=N)N)NC(=O)[C@H](C)NC(=O)[C@H](C)NC(=O)[C@H](C)NC(=O)[C@H](C)NC(=O)[C@@H]2CCCN2C(=O)[C@H]2CCCN2C1=O
b = CC(C)C[C@@H]1NC(=O)[C@H](C)NC(=O)[C@@H]2CCCN2C(=O)[C@@H](CCCCN)N(C)C(=O)[C@H](CC(C)C)NC(=O)[C@H](CC(=O)O)NC(=O)CNC(=O)[C@H](CCCNC(=N)N)NC1=O
## Task Between the entries labelled a and b , which has a larger pIC50 value on record? Write down the label of the entry you select.
## Result b
(b: 7.41, a: 6.56)

---

Target: Integrin alpha-V/beta-8 (Homo sapiens, UniProt P06756+P26012)
Assay: Inhibition of LAP binding to human integrin alphavbeta8 receptor after 1 hr by solid-phase binding assay
Assay type: protein-complex assay
Settings: read-out: IC50
pIC50: −log10 of the molar value. Non-standard residues stand in square brackets, D forms with d. Residues, ends and D or L forms follow the SMILES beside them.
valueType: pIC50

Below, each entry is followed by its recorded pIC50 result.
- compound: "CC(C)C[C@@H]1NC(=O)[C@H](CC(=O)O)NC(=O)[C@H]([C@@H](C)O)NC(=O)[C@H](CCCNC(=N)N)NC(=O)[C@H](Cc2ccccc2)NC(=O)[C@H](C)NC(=O)[C@@H]2CCCN2C(=O)[C@H]2CCCN2C1=O"
  pIC50: 8.37
- compound: "CC(C)C[C@@H]1NC(=O)[C@H](CC(=O)O)NC(=O)CNC(=O)[C@H](CCCNC(=N)N)NC(=O)[C@H](C)NC(=O)[C@@H]2CCCN2C(=O)[C@H]2CCCN2C(=O)[C@H](CC(C)C)NC(=O)[C@H](C)NC(=O)[C@H](C)NC1=O (cyclo(RGDLAAL[dP]PA))"
  pIC50: 7.05
- compound: "CC(C)C[C@@H]1NC(=O)[C@H](CC(=O)O)NC(=O)CNC(=O)[C@H](CCCNC(=N)N)NC(=O)[C@H](C)NC(=O)[C@H](CC(C)C)NC(=O)[C@@H]2CCCN2C(=O)[C@H]2CCCN2C(=O)[C@H](C)NC(=O)[C@H](C)NC1=O"
  pIC50: 6.96
- compound: "CC(C)C[C@@H]1NC(=O)[C@H](C)NC(=O)[C@H](Cc2ccccc2)N(C)C(=O)[C@H]2CCCN2C(=O)[C@H](CC(C)C)NC(=O)[C@H](CC(=O)O)NC(=O)CNC(=O)[C@H](CCCNC(=N)N)NC1=O"
  pIC50: 7.60
- compound: "CC(C)C[C@@H]1NC(=O)[C@H](CC(=O)O)NC(=O)CNC(=O)[C@H](CCCNC(=N)N)NC(=O)[C@@H](c2ccccc2)NC(=O)[C@H](C)NC(=O)[C@@H]2CCCN2C(=O)[C@H]2CCCN2C1=O"
  pIC50: 7.04
- compound: "CC(=O)NCCCCCCNC(=N)NCCC[C@@H]1NC(=O)[C@H](CC(C)C)NC(=O)CNC(=O)[C@@H]2CCCN2C(=O)[C@H]2CCCN2C(=O)[C@H](CC(C)C)NC(=O)[C@H](CC(=O)O)NC(=O)CNC1=O"
  pIC50: 6.64

P = CC[C@H](C)[C@@H]1NC(=O)[C@H](CC(=O)O)NC(=O)CNC(=O)[C@H](CCCNC(=N)N)NC(=O)[C@H](Cc2ccccc2)NC(=O)[C@H](C)NC(=O)[C@@H]2CCCN2C(=O)[C@H]2CCCN2C1=O
Q = CC(=O)NCCCC[C@@H]1C(=O)N2CCC[C@H]2C(=O)NCC(=O)N[C@@H](CC(C)C)C(=O)N[C@@H](CCCNC(=N)N)C(=O)NCC(=O)N[C@@H](CC(=O)O)C(=O)N[C@@H](CC(C)C)C(=O)N1C
R = CC(C)C[C@@H]1NC(=O)[C@H](CC(=O)O)NC(=O)CNC(=O)[C@H](CCCNC(=N)N)NC(=O)[C@H](c2ccccc2)NC(=O)[C@H](C)NC(=O)[C@@H]2CCCN2C(=O)[C@H]2CCCN2C1=O
## Task // ranking: key=pIC50, reverse=True Provide the labels, sequenced as the question asks.
## Result R, Q, P
(R: 8.19, Q: 7.24, P: 6.77)
